Value source: ChEMBL document CHEMBL2062481

- Experimental protocol: AUC (0 to 24 hrs) in C3H/HeN mouse urine at 25 mg/kg, iv administered as single dose
- Type: ADME, organism-based
- Set-up: time < 24 hr, dose 25 mg/kg, route intravenous
Readout label: AUC(0-t) at 24 h (ng·h/mL)
API: value field is a number in ng·h/mL; no unit string.

Lookup: Recorded AUC(0-t) at 24 h for "OC[C@H]1O[C@H](Oc2ccc(-n3ccc4ccccc43)cc2Cl)[C@@H](O)[C@@H](O)[C@@H]1O" , please?
Found: 19300

====

- Experimental protocol: AUC (0 to 24 hrs) in C3H/HeN mouse urine at 1 mg/kg, iv administered as single dose
- Format: ADME, organism-based
- Set-up: time < 24 hr, dose 1 mg/kg, route intravenous
Readout label: AUC(0-t) at 24 h (µg·h/mL)
API: value field is a number in µg·h/mL; no unit string.

Lookup: Recorded AUC(0-t) at 24 h for "O=[N+]([O-])c1ccc2c(c1)CCN2c1ccc(O[C@H]2O[C@H](CO)[C@@H](O)[C@H](O)[C@@H]2O)cc1" , please?
Found: 586

====

- Experimental protocol: AUC (0 to 24 hrs) in C3H/HeN mouse plasma at 1 mg/kg, iv administered as single dose
- Format: ADME, organism-based
- Parameters: time < 24 hr, dose 1 mg/kg, route intravenous
Readout label: AUC(0-t) at 24 h (ng·h/mL)
API: value field is a number in ng·h/mL; no unit string.

Lookup: Recorded AUC(0-t) at 24 h for "O=[N+]([O-])c1ccc2c(c1)CCN2c1ccc(O[C@H]2O[C@H](CO)[C@@H](O)[C@H](O)[C@@H]2O)cc1" , please?
Found: 2200

====

- Experimental protocol: AUC (0 to 24 hrs) in C3H/HeN mouse plasma at 25 mg/kg, iv administered as single dose
- Type: ADME, organism-based
- Set-up: time < 24 hr, dose 25 mg/kg, route intravenous
Readout label: AUC(0-t) at 24 h (ng·h/mL)
API: value field is a number in ng·h/mL; no unit string.

Lookup: Recorded AUC(0-t) at 24 h for "OC[C@H]1O[C@H](Oc2ccc(-n3ccc4ccccc43)cc2Cl)[C@@H](O)[C@@H](O)[C@@H]1O" , please?
Found: 8200

====

Consider the following compounds and their measured logD at 2 h, 1 µM readings.
- Experimental protocol: 1-octanol-phosphate buffer distribution coefficient, log D of the compound at 1 uM after 2 hrs by shake flask method at pH 7.4
- Format: physicochemical
Just the number, please, no unit after it.

Lookup: Recorded logD at 2 h, 1 µM for "OC[C@H]1O[C@H](Oc2ccc(N3CCc4ccccc43)cc2)[C@@H](O)[C@@H](O)[C@@H]1O" , please?
Found: 2.3

Lookup: Recorded logD at 2 h, 1 µM for "O=C(O)c1ccc2c(ccn2-c2ccc(O[C@H]3O[C@H](CO)[C@@H](O)[C@H](O)[C@@H]3O)c(Cl)c2)c1" , please?
Found: 1.1

Lookup: Recorded logD at 2 h, 1 µM for "O=[N+]([O-])c1ccc2c(ccn2-c2ccc(O[C@H]3O[C@H](CO)[C@@H](O)[C@H](O)[C@@H]3O)c(Cl)c2)c1" , please?
Found: 1.8

Lookup: Recorded logD at 2 h, 1 µM for "OC[C@H]1O[C@H](Oc2ccc(-c3cnc4[nH]ccc4c3)cc2Cl)[C@@H](O)[C@@H](O)[C@@H]1O" , please?
Found: 3.2
